This collection of values is drawn from patent US20250263408A1.

tested on: Ba/F3-WT (wild type) cells; assay: Ba/F3 Proliferation Assay, Ba/F3-WT (wild type) cells with mIL-3 (Resazurin); type: cell-based; conditions: Mus musculus, BaF3, 48 h, Ba/F3-WT cells +mIL-3, 48-hour incubation
The following compounds are shown together with reported EC50 values.
Entry rule: numbers only, all in nM.

compound	EC50 / nM
FC(F)n1cc(-c2cc3ncccc3c(OC[C@@H]3CNCCO3)n2)cn1	2890

Summary line: CC1(C)CNC[C@@H](COc2nc(-c3ccn(C4CC4(F)F)c3)cc3ncccc23)O1 (stereo partly drawn) , Ba/F3-WT (wild type) cells, reported EC50 = 3290

The compound O=C1CCn2cc(-c3cc4ncccc4c(OC[C@@H]4CNCCO4)n3)cc21 , tested on Ba/F3-WT (wild type) cells, showed EC50 of 4850

The recorded EC50 with Ba/F3-WT (wild type) cells for CC(C)(C)n1cc(-c2cc3ncccc3c(OC[C@@H]3CNCC4(COC4)O3)n2)cn1 was 1910

With Ba/F3-WT (wild type) cells as the test system, CC1(C)CNC[C@@H](COc2cc(-c3ccn(C4COC4)c3)cc3ncccc23)O1 showed EC50 of 1700

Record for COCCn1ccc(-c2cc3ncccc3c(OC[C@@H]3CNCCO3)n2)c1 under target or system Ba/F3-WT (wild type) cells: EC50 reported as 1980

Cc1cc(-c2cc3ncccc3c(OC[C@@H]3CNCCO3)n2)c(C)s1 tested on Ba/F3-WT (wild type) cells gave EC50: 2830

Lab entry: Ba/F3-WT (wild type) cells assay, compound FC1(F)CC1n1ccc(-c2cc3ncccc3c(OC[C@@H]3CNCCO3)n2)c1 (stereo partly drawn) , EC50 = 2400

Field EC50 (system: Ba/F3-WT (wild type) cells) for entry C[C@@H](Oc1cc(-c2ccn(C)c2)cc2ncccc12)[C@@H]1CNCCO1 = 1700

Record CC[C@@H]1CNC[C@@H](COc2nc(-c3cnn(C(C)(C)C)c3)cc3ncccc23)O1 has Ba/F3-WT (wild type) cells EC50 equal to 1240

Log: Ba/F3-WT (wild type) cells, compound Cc1cc(-c2cc3ncccc3c(OC[C@@H]3CNCCO3)n2)cs1 , EC50 = 1860

* * *

test system: Ba/F3-WT (wild type) cells; experiment: Ba/F3 Proliferation Assay, Ba/F3-WT (wild type) cells with mIL-3 (Resazurin); assay type: cell-based; details: Mus musculus, BaF3, 48 h, Ba/F3-WT cells +mIL-3, 48-hour incubation
pEC50: −log10 of the molar value.
readout: pEC50

Record FC(F)(F)n1cc(-c2cc3ncccc3c(OC[C@@H]3CNCCO3)n2)cn1 [Compound 2.16] , field pEC50: < 5.00

Reported pEC50 of FC(F)(F)c1[nH]ncc1-c1cc2ncccc2c(OC[C@@H]2CNCCO2)n1 [Compound 2.17] : < 5.00

Value of pEC50 reported for the compound C1=C(c2cc(OC[C@@H]3CNCCO3)c3cccnc3c2)CCC1 [Compound 11.1] is < 5.00
